System: IGROV-1
measurement-notes: NCI tumour cell line growth inhibition, 48 h
Calls of active or inactive are those of the source. No stated cut-off is given here; in the data, active = GI50 up to about 1.1 µM and inactive = higher. Where a SMILES comes first, the peptide text is derived from it. The star is where a group is joined. Boc = CC(C)(C)OC(=O)*
observable: GI50

CCOC(=O)NC(=O)c1cn(C2OC(COC(=O)CCCCCCCCC(=O)OCC3OC(n4cc(C(=O)NC(=O)OCC)c(=O)[nH]c4=O)C4OC(C)(C)OC34)C3OC(C)(C)OC32)c(=O)[nH]c1=O (stereo unspecified); > 100 µM (inactive)

INPUT: Fill in: GI50 of O=C(O)C(C(=O)O)P(=S)(S)c1ccccc1 (stereo unspecified) is ___
OUTPUT: > 100 µM (inactive)

INPUT: Let us now turn to O=[N+]([O-])c1ccc(CN(CCCl)OCCCl)cc1
OUTPUT: 75.9 µM (inactive)

INPUT: Would you kindly repeat that for Nc1nc(N)c(-c2ccccc2)c(CCC(=O)Nc2ccc(Cl)cc2)n1 ?
OUTPUT: > 100 µM (inactive)

INPUT: Also need CC(NC(=O)C(NC(=O)OC(C)(C)C)C(C)C)C(=O)NCC(=O)O (stereo not drawn) (Boc-Val-Ala-Gly-OH; configuration not given here) , thanks.
OUTPUT: > 100 µM (inactive)

INPUT: Note, next up: CSc1ccc(NC(=O)CCl)cc1
OUTPUT: 4.73 µM (inactive)

INPUT: Field entry: CN(C)CCNC(=O)c1c(O)ccc2c1c1c(n2CCc2ccccc2)C(=O)c2ccccc2C1=O
OUTPUT: 8.47 µM (inactive)

INPUT: Field entry: C=C1C(=O)C2=C[C@H]1C[C@H](O)C(=O)[C@]1(C)CCCC(C)(C)[C@H]1C[C@H]2O
OUTPUT: 3.6 µM (inactive)

INPUT: # iterate: CN(C)[C@@H]1C(O)=C(C(=O)NCNCCCC(=O)O)C(=O)[C@@]2(O)C(O)=C3C(=O)c4c(O)cccc4[C@@](C)(O)[C@H]3C[C@@H]12
OUTPUT: > 100 µM (inactive)

INPUT: Moving on to Cc1ccc(/N=N/c2c(O)c3ccccc3[nH]c2=O)c(S(=O)(=O)N(C)C)c1
OUTPUT: > 100 µM (inactive)

INPUT: Cool, now Cn1cc(NC(=O)c2cc(NC(=O)c3cc(NC=O)cn3C)cn2C)cc1C(=O)NCCC(=N)N
OUTPUT: > 100 µM (inactive)

INPUT: Now the same for CC12CCC(CC(=O)/C1=C(/Br)I)C2(C)C (stereo unspecified)
OUTPUT: 16.9 µM (inactive)

INPUT: Try this compound next: COc1ccc(OC)c2c3c(ccc12)C(c1ccccc1)OC3=O (stereo unspecified)
OUTPUT: > 100 µM (inactive)

INPUT: Item: CC1=CC(c2ccccc2)n2c(nc3cc4ccccc4cc32)N1 (stereo unspecified)
OUTPUT: > 100 µM (inactive)

INPUT: For CSc1ccc(NC(=O)Nc2cc(C)ccn2)cc1 then?
OUTPUT: > 100 µM (inactive)

INPUT: Also need CC1CCC(O)/C=C/C(=O)OC(C)C(O)/C=C/C(=O)O1 (stereo unspecified) , thanks.
OUTPUT: > 100 µM (inactive)
